METHOD SUMMARY: kinetic analysis, non-endpoint assay at 23° C.
Type: biochemical
CONDITION DESCRIPTION: standard error in parenthetical, NDB = activity not robust enough for kinetic characterization, read-out: Km 2,4-D
QUANTITY MEASURED: Km (µM)

MOLECULE	NUMERIC RESULT
MON-HT3: engineered oxygenase protein, amino acid sequence SEQ ID NO:22 (protein) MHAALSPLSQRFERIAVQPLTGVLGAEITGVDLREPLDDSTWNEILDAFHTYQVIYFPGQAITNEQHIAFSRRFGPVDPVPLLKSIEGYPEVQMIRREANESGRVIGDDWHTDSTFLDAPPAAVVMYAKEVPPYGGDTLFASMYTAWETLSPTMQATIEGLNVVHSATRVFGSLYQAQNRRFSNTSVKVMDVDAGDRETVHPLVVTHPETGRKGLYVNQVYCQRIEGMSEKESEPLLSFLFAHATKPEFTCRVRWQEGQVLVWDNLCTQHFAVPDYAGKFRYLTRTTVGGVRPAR	270
MON-HT2: engineered oxygenase protein, amino acid sequence SEQ ID NO:18 (protein) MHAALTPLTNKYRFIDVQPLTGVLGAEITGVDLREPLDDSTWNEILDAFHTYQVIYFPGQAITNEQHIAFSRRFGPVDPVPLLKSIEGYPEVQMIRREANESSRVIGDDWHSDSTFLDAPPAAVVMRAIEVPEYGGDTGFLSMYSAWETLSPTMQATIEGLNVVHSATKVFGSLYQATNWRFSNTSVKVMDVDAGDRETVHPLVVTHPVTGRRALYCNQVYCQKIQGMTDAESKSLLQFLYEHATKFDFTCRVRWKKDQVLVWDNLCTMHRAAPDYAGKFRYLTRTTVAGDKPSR	40
MON-HT55: engineered oxygenase protein, amino acid sequence SEQ ID NO:11 (protein) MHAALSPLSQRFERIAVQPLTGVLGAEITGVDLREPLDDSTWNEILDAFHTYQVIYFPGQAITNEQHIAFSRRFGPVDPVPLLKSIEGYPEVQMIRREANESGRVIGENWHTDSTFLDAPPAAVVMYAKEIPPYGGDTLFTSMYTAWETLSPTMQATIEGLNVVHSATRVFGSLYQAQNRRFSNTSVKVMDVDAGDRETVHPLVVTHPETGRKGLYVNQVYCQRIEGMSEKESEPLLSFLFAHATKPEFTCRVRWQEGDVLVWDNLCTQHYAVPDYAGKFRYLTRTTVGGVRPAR	690
MON-HT1: engineered oxygenase protein, amino acid sequence SEQ ID NO:14 (protein) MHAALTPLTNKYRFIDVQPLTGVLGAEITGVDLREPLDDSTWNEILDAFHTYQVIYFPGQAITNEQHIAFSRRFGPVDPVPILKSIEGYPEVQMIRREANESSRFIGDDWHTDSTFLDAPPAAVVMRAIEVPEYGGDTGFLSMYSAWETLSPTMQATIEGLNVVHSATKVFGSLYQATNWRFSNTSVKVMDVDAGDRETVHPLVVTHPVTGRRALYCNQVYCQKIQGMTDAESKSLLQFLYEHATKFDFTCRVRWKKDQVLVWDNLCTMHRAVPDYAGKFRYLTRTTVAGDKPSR	30
MON-HT8: engineered oxygenase protein, amino acid sequence SEQ ID NO:37 (protein) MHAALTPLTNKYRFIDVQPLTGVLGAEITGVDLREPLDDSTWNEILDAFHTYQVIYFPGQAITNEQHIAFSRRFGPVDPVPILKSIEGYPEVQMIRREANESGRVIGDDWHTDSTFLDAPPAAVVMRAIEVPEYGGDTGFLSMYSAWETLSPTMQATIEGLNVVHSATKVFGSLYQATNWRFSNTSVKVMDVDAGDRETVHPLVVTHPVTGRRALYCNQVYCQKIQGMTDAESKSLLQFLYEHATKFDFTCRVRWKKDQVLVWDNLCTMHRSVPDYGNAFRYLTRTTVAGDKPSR	140
